# assay.summary: Determination of the microsomal half-life, rat liver microsomes
# test.context: rat, liver microsomes, pH 7.4
Counter-ions that a name gives are not always drawn.
Each entry below lists one item and its recorded microsomal CLint at 0.5 μM value.

[[record]]
compound = "Cn1nccc1-c1ccc(F)c2c1C(=O)N(CCc1cn3ccccc3n1)C2 [Example 382]"
experimental_result = "< 100 µL/min/mg"

[[record]]
compound = "O=C1c2c(cccc2N2CCOCC2)CN1CCc1nc2ccccc2n1C(F)F [compound 449, trifluoroacetate]"
experimental_result = "100 to 220 µL/min/mg"

[[record]]
compound = "O=C1c2c(cccc2N2CCOCC2)CN1CCc1cnc2ccccc2n1 [compound 482]"
experimental_result = "< 100 µL/min/mg"

[[record]]
compound = "Cc1occc1-c1ccnc2c1C(=O)N(CCc1cn3ccccc3n1)C2 [compound 524]"
experimental_result = "> 220 µL/min/mg"


Query (compound): CN1CCN(c2ccnc3c2C(=O)N(CCc2ccc4ccccc4n2)C3)CC1 [Example 138] ; field requested: microsomal CLint at 0.5 μM
< 100 µL/min/mg

Also need O=C1c2c(-c3cscn3)ccnc2CN1CCc1nc2ccccc2s1 [compound 436] , thanks.
< 100 µL/min/mg

Also need O=C1c2c(cccc2-c2cccnc2)CN1CCc1nc2ncccc2[nH]1 [Example 253] , thanks.
< 100 µL/min/mg

Also need O=C1c2c(-c3cn[nH]c3)ccnc2CN1CCc1nc2ccccc2s1 [compound 538, trifluoroacetate] , thanks.
100 to 220 µL/min/mg
